The reported measurements were obtained from patent US8198462B2.

- PROTOCOL: Solubility of the photoinitiator in frequently used organic solvents
- Format: physicochemical
- EXPERIMENTAL CONDITIONS: solvent 3-methoxybutyl acetate (MBA)
ASSAY METRIC: Solubility in 3-MBA

Field Solubility in 3-MBA (entry CC(=O)O/N=C(\CC(c1ccc(C(C/C(=N\OC(C)=O)c2ccccc2)N(OC(C)=O)C(C)=O)cc1)N(OC(C)=O)C(C)=O)c1ccccc1 (stereo not drawn) ) reads 50 or more grams in 100 g of the solvent

Field Solubility in 3-MBA (entry CCn1c2ccc(/C(CC(c3ccccc3)N(OC(C)=O)C(C)=O)=N/OC(C)=O)cc2c2cc(/C(CC(c3ccccc3)N(OC(C)=O)C(C)=O)=N/OC(C)=O)ccc21 (stereo not drawn) ) reads 50 or more grams in 100 g of the solvent

Field Solubility in 3-MBA (entry CSc1ccc(C(C/C(=N\OC(C)=O)c2ccc(/C(CC(c3ccc(SC)cc3)N(OC(C)=O)C(C)=O)=N/OC(C)=O)cc2)N(OC(C)=O)C(C)=O)cc1 (stereo not drawn) ) reads 50 or more grams in 100 g of the solvent

Field Solubility in 3-MBA (entry CCn1c2ccc(C(=O)c3ccccc3C)cc2c2cc(/C(C)=N/OC(C)=O)ccc21 [Comparative Example 1, reference compound] ) reads 10 grams in 100 g of the solvent

Field Solubility in 3-MBA (entry CCn1c2ccc(/C(CC(c3ccc(SC)cc3)N(OC(C)=O)C(C)=O)=N/OC(C)=O)cc2c2cc(/C(CC(c3ccc(SC)cc3)N(OC(C)=O)C(C)=O)=N/OC(C)=O)ccc21 (stereo not drawn) ) reads 50 or more grams in 100 g of the solvent

Field Solubility in 3-MBA (entry CCn1c2ccc(/C(CC(c3cccs3)N(OC(C)=O)C(C)=O)=N/OC(C)=O)cc2c2cc(/C(CC(c3cccs3)N(OC(C)=O)C(C)=O)=N/OC(C)=O)ccc21 (stereo not drawn) ) reads 30 grams in 100 g of the solvent
